Target: FGFR3 (h) (Homo sapiens)
Sequence (P22607 23-806): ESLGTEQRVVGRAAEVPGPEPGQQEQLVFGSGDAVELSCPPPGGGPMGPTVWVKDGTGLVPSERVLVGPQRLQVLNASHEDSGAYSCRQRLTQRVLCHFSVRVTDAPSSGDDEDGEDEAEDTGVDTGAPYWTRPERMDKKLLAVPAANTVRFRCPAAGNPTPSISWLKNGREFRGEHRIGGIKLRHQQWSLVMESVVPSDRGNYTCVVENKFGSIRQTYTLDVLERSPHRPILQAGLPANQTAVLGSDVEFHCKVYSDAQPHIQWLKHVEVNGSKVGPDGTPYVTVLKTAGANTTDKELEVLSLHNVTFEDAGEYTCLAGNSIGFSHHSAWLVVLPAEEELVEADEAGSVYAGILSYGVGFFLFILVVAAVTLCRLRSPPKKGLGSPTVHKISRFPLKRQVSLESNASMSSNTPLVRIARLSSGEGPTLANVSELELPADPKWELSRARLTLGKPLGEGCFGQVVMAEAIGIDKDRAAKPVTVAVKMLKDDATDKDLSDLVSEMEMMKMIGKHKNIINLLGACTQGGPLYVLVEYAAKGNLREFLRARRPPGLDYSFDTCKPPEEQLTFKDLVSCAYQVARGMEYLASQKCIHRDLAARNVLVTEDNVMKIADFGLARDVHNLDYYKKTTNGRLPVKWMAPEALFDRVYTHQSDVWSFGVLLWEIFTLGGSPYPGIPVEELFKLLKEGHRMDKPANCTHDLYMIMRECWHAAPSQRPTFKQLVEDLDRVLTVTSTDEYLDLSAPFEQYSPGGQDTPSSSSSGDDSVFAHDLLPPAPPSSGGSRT
Assay: FGFR3 (enzymatic assay), TR-FRET
Type: biochemical
Conditions: 25 μM ATP, 60 min; pIC50 = -log IC50 (M); average if tested multiple times; read-out: hFGFR 3 pIC50 (converted)
READOUT: IC50 (M)

Answered cases to consult:
| MOLECULE | IC50, M |
| --- | --- |
| COc1cc(OC)cc(N(Cc2nccn2S(=O)(=O)N(C)C)c2ccc3ncc(-c4ccncc4)cc3c2)c1 | 2.75e-08 |
| COc1cc(OC)cc(/C(=C/C#N)c2ccc3ncc(-c4cnn(C)c4)cc3c2)c1 | 4.57e-08 |
| COc1cc(OC)cc(C(=O)c2ccc3ncc(-c4cnn(C)c4)cc3c2)c1 | 1.86e-08 |

A = COc1cc(OC)cc(/C(=C\C#N)c2ccc3ncc(-c4cnn(C)c4)cc3c2)c1
B = CNCCN(c1ccc2ncc(-c3cnn(C)c3)cc2c1)c1c(F)c(OC)cc(OC)c1F
Incoming: Pick one, A or B : lowest reported IC50. Lab log: write the label of the selected item as the result.
Outgoing: B

I = COc1cc(OC)cc(N(CCNC(C)C)c2ccc3ncc(-c4cnn(CCO)c4)cc3c2)c1
II = COc1cc(OC)cc(N(CCNC(C)C)c2ccc3ncc(-c4cnn(C)c4)cc3c2)c1
III = COc1cc(OC)cc(N(Cc2ncc[nH]2)c2ccc3ncc(C4CCNCC4)cc3c2)c1 [Compound 48a]
IV = COc1cc(OC)cc(C(CCO)c2ccc3ncc(-c4cnn(C)c4)cc3c2)c1 (stereo not drawn) [Compound 34]
Incoming: Order the records, beginning with the lowest IC50 and ending with the highest. Form entry: labels listed in requested order.
Outgoing: I, II, IV, III
(I: 4.9e-09 M, II: 7.94e-09 M, IV: 2.14e-08 M, III: 4.17e-07 M)

I = COc1cc(OC)cc(N(CC#Cc2ncccc2OC)c2ccc3ncc(-c4cnn(C)c4)cc3c2)c1
II = COc1cc(OC)cc(N(Cc2ncc[nH]2)c2ccc3ncc(-c4ccn(C)c4)cc3c2)c1
Incoming: Between I and II , which one shows the larger IC50 value? Lab log: write the label of the selected item as the result.
Outgoing: I
(I: 5.89e-08 M, II: 1.45e-09 M)

// provenance: patent US10039759B2
